System: Rec-1
Assay: Anti Proliferation Assay (MTS), Rec-1
Format: cell-based
Conditions: Homo sapiens, Rec1, Rec-1 cells, 72 hours treatment
Experimental: Cell survival was determined by the MTS assay. Briefly, cells were plated in a 96-well plate at 2,000-10,000 cells per well, cultured for 24 hours in complete growth medium, and then treated with various drugs and drug combinations for 72 hours. MTS/PMS was added and incubated for 4 hour, followed by assessment of cell viability using the microplate reader (absorbance at 490 nm). Data were normalized to untreated controls and analyzed with Microsoft Excel.
In this section we review reported IC50 values for a set of molecules.

molecule: O=c1c2c[nH]nc2c2cnc(NCC3CNc4ccccc4O3)nc2n1-c1ccccc1F (stereo not drawn) [Compound 346]
experimental.system: Rec-1
IC50 [µM]: 32
--
molecule: O=c1c2c[nH]nc2c2cnc(NCC3COc4ccccc4O3)nc2n1-c1ccccc1 (stereo not drawn) [Compound 14]
experimental.system: Rec-1
IC50 [µM]: 4.3
--
molecule: O=c1[nH]nc2c3cnc(NCC4COc5ccccc5O4)nc3n(-c3ccccc3)cc1-2 (stereo not drawn) [Compound 356]
experimental.system: Rec-1
IC50 [µM]: 18.5
